B1: Hairpin Ribozyme (parent)
chain: GUCCUCUUUCACGUGCGCGUGAAAGAGAGAAGUGAACCAGAGAAACACACGUUGUGGUAUAUUACCUGGUA

- Variants of: B1
- ASSAY_METHOD_TEXT: self-cleavage, relative activity (ratio to wild type); higher = more cleavage; co-transcriptional
Please enter rule met where self-cleavage is greater than or equal to 0.2, and rule not met where it is lower.

Use these answered entries as a reference point.
Would you say U33G A45C shows self-cleavage at minimum 0.2? rule not met

Form field: self-cleavage at least 0.2? Entry: A49C U63G rule not met

Confirm if self-cleavage reported for the variant G54C A64G is 0.2 or above. rule not met

In plain terms: is recorded self-cleavage at least 0.2 for A31U A43C ? rule not met

Continuing:
Quick check: does A26G G69C have self-cleavage greater than or equal to 0.2? rule met

Hi team, for U14G G32U , is the recorded self-cleavage at or above 0.2? rule not met

Check the entry A23U A39U : does self-cleavage equal or exceed 0.2? rule met
